Hello, the source for this data is patent US5695970A, in case you need it.

- System: α-1,4-glucan lyase
- assayOverview: Elution of α-1,4-glucan lyase from the starch column by glucans
- Format: binding, Gracilariopsis lemaneiformis
- runConditions: glucan 8 mg ml^-1; column 1 ml, 5 ml eluate; recovery with amylopectin = 100%
Elution Efficiency listing for selected compounds.
reportedEndpoint: Elution Efficiency

1) OC[C@H]1O[C@H](O[C@H]2[C@H](O)[C@@H](O)[C@@H](O[C@H]3[C@H](O)[C@@H](O)[C@@H](O[C@H]4[C@H](O)[C@@H](O)[C@@H](O[C@H]5[C@H](O)[C@@H](O)[C@@H](O[C@H]6[C@H](O)[C@@H](O)[C@@H](O[C@H]7[C@H](O)[C@@H](O)C(O)O[C@@H]7CO)O[C@@H]6CO)O[C@@H]5CO)O[C@@H]4CO)O[C@@H]3CO)O[C@@H]2CO)[C@H](O)[C@@H](O)[C@@H]1O (stereo partly shown) ... 94.3%
2) OC[C@H]1O[C@H](O[C@H]2[C@H](O)[C@@H](O)[C@@H](O[C@H]3[C@H](O)[C@@H](O)[C@@H](O[C@H]4[C@H](O)[C@@H](O)C(O)O[C@@H]4CO)O[C@@H]3CO)O[C@@H]2CO)[C@H](O)[C@@H](O)[C@@H]1O (stereo partly shown) ... 65.7%
3) OC[C@H]1O[C@H](O[C@H]2[C@H](O)[C@@H](O)[C@H](O)O[C@@H]2CO)[C@H](O)[C@@H](O)[C@@H]1O ... 56.4%
4) OC[C@H]1OC(O)[C@H](O)[C@@H](O)[C@@H]1O (stereo partly shown) ... 0%
